The measurements presented in this section are drawn from PubChem BioAssay (EPA / NIEHS).

Read-out: Urokinase-type plasminogen activator receptor (uPAR), PLAUR (gene 5329)
Experiment Notes: BSK_CASM3C_uPAR: BioMAP Diversity Plus: CASM3C Assay for Urokinase-type plasminogen activator receptor (uPAR) Biomarker Activity (AID 2283054);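 further: cell-surface uPAR protein level quantified by ELISA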
Cond: primary human coronary artery smooth muscle cells; actives raise or lower the signal
The source made the active and inactive calls. How the source made its calls: active means hit-call score of the fitted dose curve at least 0.9, where 1 is the maximum; inactive means score below 0.9.
Classes used: 1 (yes) for active, 0 (no) for inactive

{"Molecule": "O=C(NS(=O)(=O)/C=C/c1cccs1)c1ccc(F)cc1Br", "Discrete Label": "0 (no)"}
{"Molecule": "NCCOCCOCCN", "Discrete Label": "0 (no)"}
{"Molecule": "COC(=O)CCC(=O)OC", "Discrete Label": "0 (no)"}
{"Molecule": "O=C1CCCCC1", "Discrete Label": "0 (no)"}
{"Molecule": "Oc1ccc(O)cc1", "Discrete Label": "0 (no)"}
{"Molecule": "CCCCCCCC(=O)OC", "Discrete Label": "0 (no)"}
{"Molecule": "C/C=C/c1ccc(OC)cc1", "Discrete Label": "0 (no)"}
{"Molecule": "CC(C)c1cccc(C(C)C)c1", "Discrete Label": "0 (no)"}
{"Molecule": "CCCCC(CC)COC(=O)CCCCCCCC(=O)OCC(CC)CCCC (configuration not stated)", "Discrete Label": "0 (no)"}
{"Molecule": "Nc1nc(Cl)nc2c1ncn2[C@H]1C[C@H](O)[C@@H](CO)O1", "Discrete Label": "0 (no)"}
{"Molecule": "NC=O", "Discrete Label": "0 (no)"}
{"Molecule": "N[C@@H](Cc1c[nH]c2ccccc12)C(=O)O", "Discrete Label": "0 (no)"}
{"Molecule": "CC(=O)OC1CC(C)OC(C)O1 (configuration not stated)", "Discrete Label": "0 (no)"}
{"Molecule": "CC(C)(O)c1ccc(CNC(=O)c2cccnc2Oc2ccc(F)cc2)cc1", "Discrete Label": "0 (no)"}
{"Molecule": "Cn1cnc2c1c(=O)[nH]c(=O)n2C", "Discrete Label": "0 (no)"}
{"Molecule": "O=C1c2c(O)cccc2Cc2cccc(O)c21", "Discrete Label": "0 (no)"}
{"Molecule": "CC1=C(C)S(=O)(=O)CCS1(=O)=O", "Discrete Label": "0 (no)"}
{"Molecule": "Cc1c(C)c2c(c(C)c1O)CCC(C)(COc1ccc(CC3SC(=O)NC3=O)cc1)O2 (configuration not stated)", "Discrete Label": "0 (no)"}
{"Molecule": "CC(=O)CC(c1ccccc1)c1c(O)c2ccccc2oc1=O (configuration not stated)", "Discrete Label": "0 (no)"}
{"Molecule": "CC(C)OC(=O)C(C)(C)Oc1ccc(C(=O)c2ccc(Cl)cc2)cc1", "Discrete Label": "1 (yes)"}
{"Molecule": "CC(COCC(C)OC(=O)c1ccccc1)OC(=O)c1ccccc1 (configuration not stated)", "Discrete Label": "0 (no)"}
{"Molecule": "CC1(C)C(=O)NC(=O)N1CO", "Discrete Label": "0 (no)"}
{"Molecule": "Cc1ccc(C(C)(C)C)c(O)c1", "Discrete Label": "0 (no)"}
{"Molecule": "Cc1cc(Cc2ccc(N)c(C)c2)ccc1N", "Discrete Label": "0 (no)"}
{"Molecule": "CC(=O)[C@@]1(O)CC[C@H]2[C@@H]3CCC4=CC(=O)CC[C@]4(C)[C@H]3CC[C@@]21C", "Discrete Label": "0 (no)"}
{"Molecule": "CC(=O)S[C@H](C(=O)N[C@H]1Cc2ccccc2[C@H]2CCC[C@@H](C(=O)O)N2C1=O)C(C)C", "Discrete Label": "0 (no)"}
{"Molecule": "CS(=O)(=O)c1ccc([C@@H](C[C@H]2CCC(=O)C2)C(=O)Nc2cnccn2)cc1Cl", "Discrete Label": "0 (no)"}
